target: proMMP9(67-444;ΔFnII) (SEQ ID NO:5) (Homo sapiens, UniProt P14780, DEL216-390); construct: start methionine (N); assay: ThermoFluor binding assay with proMMP9(67-444;ΔFnII)
Sequence (P14780 with tags, fused parts or gaps DEL216-390): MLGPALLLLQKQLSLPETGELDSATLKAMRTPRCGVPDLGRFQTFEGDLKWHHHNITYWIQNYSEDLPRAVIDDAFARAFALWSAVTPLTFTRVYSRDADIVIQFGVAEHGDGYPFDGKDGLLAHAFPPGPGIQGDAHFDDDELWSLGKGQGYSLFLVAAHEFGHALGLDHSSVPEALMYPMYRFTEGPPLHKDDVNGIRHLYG
pKd: −log10 of the molar value.

{"smiles input": "CC(C)Oc1ccc(C#N)cc1Nc1nc2c(ccc3c2ncn3C)s1", "pKd": 7.12}
{"smiles input": "COc1ccc(S(C)(=O)=O)cc1Nc1nc2c(ccc3cnn(C)c32)s1", "pKd": 5.92}
{"smiles input": "CC(C)Oc1ccc(C(=O)O)cc1Nc1nc2c(ccc3[nH]c(N)nc32)s1", "pKd": 7.04}
{"smiles input": "CC(C)Oc1ccc(C(N)=O)cc1Nc1nc2c(s1)CCc1ccncc1-2", "pKd": 5.14}

----------
molecular target: proMMP9(67-444;ΔFnII) (SEQ ID NO:5) (Homo sapiens, UniProt P14780, DEL216-390); construct: start methionine (N); experiment: ThermoFluor binding assay with proMMP9(67-444;ΔFnII)
Catalogue of Kd readings, one per entry.
observable: Kd (nM)

{"molecule": "CC(C)Oc1ccc(C(N)=O)cc1Nc1nc2c(ccc3[nH]c(N)nc32)s1 [Example 11]", "observable": "Kd", "readout units": "nM", "result number": 720}
{"molecule": "CCn1c(C)nc2ccc3sc(Nc4cc(S(N)(=O)=O)ccc4OC)nc3c21 [Example 129]", "observable": "Kd", "readout units": "nM", "result number": 520}
{"molecule": "CCOc1ccncc1Nc1nc2c(ccc3c2ncn3C)s1 [Example 156]", "observable": "Kd", "readout units": "nM", "result number": 40}
{"molecule": "Cc1cc2ccc3sc(Nc4cc(C(N)=O)ccc4OC(C)C)nc3c2o1 [Example 38]", "observable": "Kd", "readout units": "nM", "result number": 950}
{"molecule": "Cn1cnc2c3nc(Nc4cc(S(N)(=O)=O)ccc4OC(F)(F)F)sc3ccc21 [Example 64]", "observable": "Kd", "readout units": "nM", "result number": 900}
{"molecule": "Cn1cnc2c3nc(Nc4ccccc4OC(F)(F)F)sc3ccc21 [Example 58]", "observable": "Kd", "readout units": "nM", "result number": 930}
{"molecule": "Cn1cnc2ccc3sc(Nc4cc(S(N)(=O)=O)ccc4OC(F)(F)F)nc3c21 [Example 128]", "observable": "Kd", "readout units": "nM", "result number": 1500}
{"molecule": "COc1ccc(S(=O)(=O)N2CCCC2)cc1Nc1nc2c(ccc3c2ncn3C)s1 [Example 72]", "observable": "Kd", "readout units": "nM", "result number": 1600}
{"molecule": "CCn1c(C)nc2ccc3sc(Nc4cc(F)ccc4OC)nc3c21 [Example 121]", "observable": "Kd", "readout units": "nM", "result number": 860}
{"molecule": "Cc1nc2ccc3sc(Nc4cc(S(N)(=O)=O)ccc4OC(C)C)nc3c2n1CC(F)(F)F [Example 136]", "observable": "Kd", "readout units": "nM", "result number": 590}
{"molecule": "Cc1nc2ccc3sc(Nc4cc(C(N)=O)ccc4OC(C)C)nc3c2s1 [Example 13]", "observable": "Kd", "readout units": "nM", "result number": 390}
{"molecule": "COc1ccc(S(C)(=O)=O)cc1Nc1nc2c(ccc3ncn(C)c32)s1 [Example 135]", "observable": "Kd", "readout units": "nM", "result number": 640}
{"molecule": "COc1ccc(S(C)(=O)=O)cc1Nc1nc2c(ccc3nc(C)n(CC(F)(F)F)c32)s1 [Example 138]", "observable": "Kd", "readout units": "nM", "result number": 480}
{"molecule": "Cc1nc2ccc3sc(Nc4cc(S(N)(=O)=O)ccc4OC(F)(F)F)nc3c2n1C [Example 126]", "observable": "Kd", "readout units": "nM", "result number": 2200}
{"molecule": "CCn1cnc2ccc3sc(Nc4cc(C(N)=O)ccc4OC(C)C)nc3c21 [Example 33]", "observable": "Kd", "readout units": "nM", "result number": 490}
{"molecule": "COc1ccc(S(N)(=O)=O)cc1Nc1nc2c(ccc3c2cnn3C)s1 [Example 103]", "observable": "Kd", "readout units": "nM", "result number": 370}
{"molecule": "CCN(CC)S(=O)(=O)c1ccc(OC)c(Nc2nc3c(ccc4c3ncn4C)s2)c1 [Example 71]", "observable": "Kd", "readout units": "nM", "result number": 1600}
{"molecule": "CCn1c(C)nc2ccc3sc(Nc4cc(S(C)(=O)=O)ccc4OC)nc3c21 [Example 133]", "observable": "Kd", "readout units": "nM", "result number": 310}
{"molecule": "COc1ccc(S(N)(=O)=O)cc1Nc1nc2c(ccc3c2ncn3C)s1 [Example 54]", "observable": "Kd", "readout units": "nM", "result number": 1100}
{"molecule": "COc1ccccc1Nc1nc2c(ccc3sc(N)nc32)s1 [Example 1]", "observable": "Kd", "readout units": "nM", "result number": 810}
{"molecule": "CCOc1ccccc1Nc1nc2c(ccc3sc(N)nc32)s1 [Example 3]", "observable": "Kd", "readout units": "nM", "result number": 1600}
{"molecule": "Cn1ncc2c3nc(Nc4cc(S(N)(=O)=O)ccc4OC(F)(F)F)sc3ccc21 [Example 101]", "observable": "Kd", "readout units": "nM", "result number": 430}
{"molecule": "CC(C)Oc1ccc(S(N)(=O)=O)cc1Nc1nc2c(ccc3c2ncn3C)s1 [Example 28]", "observable": "Kd", "readout units": "nM", "result number": 2200}
